Biological target: Tyrosine-protein kinase JAK3 (Homo sapiens, UniProt P52333)
Sequence (P52333 whole entry): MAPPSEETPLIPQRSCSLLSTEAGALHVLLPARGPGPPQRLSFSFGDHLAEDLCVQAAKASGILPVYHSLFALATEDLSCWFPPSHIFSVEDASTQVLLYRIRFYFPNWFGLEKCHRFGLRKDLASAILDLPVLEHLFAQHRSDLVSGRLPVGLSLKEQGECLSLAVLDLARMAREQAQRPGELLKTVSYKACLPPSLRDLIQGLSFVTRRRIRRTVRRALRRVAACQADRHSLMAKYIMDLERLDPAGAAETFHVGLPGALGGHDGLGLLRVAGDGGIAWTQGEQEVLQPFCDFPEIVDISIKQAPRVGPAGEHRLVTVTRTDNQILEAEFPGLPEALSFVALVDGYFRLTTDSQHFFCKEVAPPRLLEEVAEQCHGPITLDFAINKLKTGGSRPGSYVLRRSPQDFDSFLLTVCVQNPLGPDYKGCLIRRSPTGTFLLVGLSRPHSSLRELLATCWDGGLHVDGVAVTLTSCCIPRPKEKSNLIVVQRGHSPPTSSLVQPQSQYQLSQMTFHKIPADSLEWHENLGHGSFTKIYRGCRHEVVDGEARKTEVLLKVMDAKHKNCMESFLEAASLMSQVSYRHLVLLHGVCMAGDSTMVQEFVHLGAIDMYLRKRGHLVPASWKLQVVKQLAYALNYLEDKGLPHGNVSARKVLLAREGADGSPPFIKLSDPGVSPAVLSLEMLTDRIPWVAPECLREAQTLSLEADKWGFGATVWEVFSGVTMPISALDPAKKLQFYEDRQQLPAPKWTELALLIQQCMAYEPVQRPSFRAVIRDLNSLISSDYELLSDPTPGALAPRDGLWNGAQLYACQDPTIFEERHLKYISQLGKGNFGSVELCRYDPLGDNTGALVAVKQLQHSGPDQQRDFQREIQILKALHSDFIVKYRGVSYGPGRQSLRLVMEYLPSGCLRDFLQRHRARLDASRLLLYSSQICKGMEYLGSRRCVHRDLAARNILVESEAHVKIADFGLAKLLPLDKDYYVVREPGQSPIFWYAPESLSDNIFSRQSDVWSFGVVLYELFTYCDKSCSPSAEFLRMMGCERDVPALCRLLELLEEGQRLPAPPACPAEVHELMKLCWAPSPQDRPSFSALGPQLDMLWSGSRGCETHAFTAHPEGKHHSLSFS
ATTRIBUTE_MEASURED: IC50

Recorded IC50 for CC(C)(C)/C=C(\C#N)C(=O)N1CCC[C@@H](n2nc(-c3ccc(Oc4ccccc4)cc3F)c3c(N)ncnc32)C1 , please?
> 5 µM

---

assay: Drug concentration in plasma of collagen-induced arthritis Lewis rat model 30 mg/kg/day, po measured after 12 hrs post-collection of plasma; assay type: ADME, organism-based
ATTRIBUTE_MEASURED: concentration at 12 h (ng/mL)
Number only, in ng/mL; omit the unit.

Recorded concentration at 12 h for CC(C)(C)/C=C(\C#N)C(=O)N1CCC[C@@H](n2nc(-c3ccc(Oc4ccccc4)cc3F)c3c(N)ncnc32)C1 , please?
51.8

---

assay: Permeability across basolateral to apical membrane in human Caco-2 cells; type: ADME, cell-based; details: read-out: permeability
// NO strictly below 10 ×10⁻⁶ cm/s in Papp B→A; YES otherwise

Answered examples (5):
# COMPOUND, GROUP
data = [
    ("CN1CCN(C(C)(C)/C=C(\\C#N)C(=O)N2CCC[C@@H](n3nc(-c4ccc(Oc5ccccc5)cc4F)c4c(N)ncnc43)C2)CC1", "YES"),
    ("CC(C)(/C=C(\\C#N)C(=O)N1CCC[C@@H](n2nc(-c3ccc(Oc4ccccc4)cc3F)c3c(N)ncnc32)C1)N1CCNCC1", "NO"),
    ("CC(C)(/C=C(\\C#N)C(=O)N1CCC[C@@H](n2nc(-c3ccc(Oc4ccccc4)cc3F)c3c(N)ncnc32)C1)N1CCN(C2COC2)CC1 [RILZABRUTINIB]", "NO"),
    ("CC(C)(/C=C(/C#N)C(=O)N1CCC[C@@H]1Cn1nc(-c2ccc(Oc3ccccc3)cc2F)c2c(N)ncnc21)N1CCOCC1", "YES"),
    ("C[C@@H]1CN(C(C)(C)/C=C(\\C#N)C(=O)N2CCC[C@@H](n3nc(-c4ccc(Oc5ccccc5)cc4F)c4c(N)ncnc43)C2)C[C@H](C)N1C", "NO"),
]

Turning now to a further compound:
Textbook exercise: given the entry COC(=O)N1CCN(C(C)(C)/C=C(\C#N)C(=O)N2CCC[C@@H](n3nc(-c4ccc(Oc5ccccc5)cc4F)c4c(N)ncnc43)C2)CC1 , state whether its Papp B→A is greater than or equal to 10 ×10⁻⁶ cm/s.
YES
